Below, each entry is listed with its recorded Antibacterial activity (MIC).
tested on: S. haemolyticus AVAH 88-3; assay: MIC, agar dilution; format: cell-based; details: S. hemolyticus AVHAH 88-3; Table IA; unit assumed
Counter-ions that a name gives are not always drawn.
Write the number in µg/mL without appending the unit.

# molecule, tested-on, value-observed
data = [
    ("CN(C)c1cc(NC(=O)CN2CCCC2)c(O)c2c1CC1CC3[C@H](N(C)C)C(O)=C(C(N)=O)C(=O)[C@@]3(O)C(O)=C1C2=O (stereo partly drawn) [SS, dihydrochloride]", "S. haemolyticus AVAH 88-3", 0.25),
]

Consider the molecule CN(C)CC(=O)Nc1cc(N(C)C)c2c(c1O)C(=O)C1=C(O)C3(O)C(=O)C(C(N)=O)=C(O)C(N(C)C)C3CC1C2.O=S(=O)(O)O.O=S(=O)(O)O (stereo not drawn) [JJ] tested on S. haemolyticus AVAH 88-3; state its Antibacterial activity (MIC). 0.25

Give Antibacterial activity (MIC) only, for CNC(C)C(=O)Nc1cc(N(C)C)c2c(c1O)C(=O)C1=C(O)[C@]3(O)C(=O)C(C(N)=O)=C(O)[C@@H](N(C)C)C3CC1C2.Cl.Cl (stereo partly drawn) [YY] , using S. haemolyticus AVAH 88-3 data. 0.5

Provide Antibacterial activity (MIC), recorded with S. haemolyticus AVAH 88-3, of CN(C)CC(=O)Nc1cc(N(C)C)c2c(c1O)C(=O)C1=C(O)C3(O)C(=O)C(C(N)=O)=C(O)C(N(C)C)C3CC1C2 (stereo not drawn) [LL] 0.12

State the measured Antibacterial activity (MIC) (S. haemolyticus AVAH 88-3) of CCCCNCC(=O)Nc1cc(N(C)C)c2c(c1O)C(=O)C1=C(O)C3(O)C(=O)C(C(N)=O)=C(O)C(N(C)C)C3CC1C2.Cl.Cl (stereo not drawn) [PP] 0.25

Would you please give the reported Antibacterial activity (MIC) of CN(C)c1cc(NC(=O)CN2CCCCC2)c(O)c2c1CC1CC3C(N(C)C)C(O)=C(C(N)=O)C(=O)C3(O)C(O)=C1C2=O.Cl.Cl (stereo not drawn) [UU] with S. haemolyticus AVAH 88-3? 0.12

###

Below: a set of entries, each annotated with reported Antibacterial activity (MIC).
test system: S. haemolyticus AVAH 88-3; assay: MIC, agar dilution; assay type: cell-based; details: S. hemolyticus AVHAH 88-3; Table IA; unit assumed
Write the value in µg/mL as a bare number.

# compound, Antibacterial activity (MIC) [µg/mL]
rows = [
    ("CCCNCC(=O)Nc1cc(N(C)C)c2c(c1O)C(=O)C1=C(O)C3(O)C(=O)C(C(N)=O)=C(O)C(N(C)C)C3CC1C2.Cl.Cl (centres unmarked)", 0.25),
    ("CC(C)CNCC(=O)Nc1cc(N(C)C)c2c(c1O)C(=O)C1=C(O)C3(O)C(=O)C(C(N)=O)=C(O)C(N(C)C)C3CC1C2.Cl.Cl (centres unmarked)", 0.5),
    ("CN(C)c1cc(NC(=O)CNC2CC2)c(O)c2c1CC1CC3C(N(C)C)C(O)=C(C(N)=O)C(=O)C3(O)C(O)=C1C2=O.Cl.Cl (centres unmarked)", 2),
    ("CCCCN(C)CC(=O)Nc1cc(N(C)C)c2c(c1O)C(=O)C1=C(O)C3(O)C(=O)C(C(N)=O)=C(O)C(N(C)C)C3CC1C2.Cl.Cl (centres unmarked)", 0.5),
]

Okay, next one:
Annotate the compound CN(C)CC(=O)Nc1cc(N(C)C)c2c(c1O)C(=O)C1=C(O)[C@]3(O)C(=O)C(C(N)=O)=C(O)[C@@H](N(C)C)C3CC1C2.Cl.Cl (some centres unmarked) with its measured Antibacterial activity (MIC). 0.12

###

test system: S. aureus UBMS 88-5 (tetM); experiment: MIC, agar dilution; assay type: cell-based; settings: S. aureus UBMS 88-5 (tetM)
attribute-measured: log10 MIC (log10 of the value in µg/mL)
Transform log10 | Measure MIC | Unit µg/mL

# compound, log10 MIC
records = [
    ("CN(C)C1C(O)=C(C(N)=O)C(=O)C2(O)C(O)=C3C(=O)c4c(O)c(NC=O)cc(I)c4CC3CC12.O=S(=O)(O)O (stereo not shown) [G]", 0.00),
]

Quote log10 MIC reported for CCN(CC)c1cc(NC(C)=O)c(O)c2c1C[C@H]1C[C@H]3[C@H](N(C)C)C(O)=C(C(N)=O)C(=O)[C@@]3(O)C(O)=C1C2=O.O=S(=O)(O)O.O=S(=O)(O)O [Compound E] please. 0.60

Provide one value: measured log10 MIC of CN(C)c1cc(NS(C)(=O)=O)c(O)c2c1CC1CC3C(N(C)C)C(O)=C(C(N)=O)C(=O)C3(O)C(O)=C1C2=O (stereo not shown) [FF] -0.60

###

system: E. faecalis 12201; experiment: MIC, agar dilution; type: cell-based; conditions: Enterococcus 12201; Table IA; unit assumed
attribute-measured: Antibacterial activity (MIC) (µg/mL)
Response body: numeric value in µg/mL, unit text excluded.

# compound, value-observed
records = [
    ("CN(C)CC(=O)Nc1cc(N(C)C)c2c(c1O)C(=O)C1=C(O)[C@]3(O)C(=O)C(C(N)=O)=C(O)[C@@H](N(C)C)C3CC1C2.Cl.Cl (stereo partly drawn) [KK]", 0.12),
    ("CN(C)CC(=O)Nc1cc(N(C)C)c2c(c1O)C(=O)C1=C(O)[C@]3(O)C(=O)C(C(=O)NCN4CCOCC4)=C(O)[C@@H](N(C)C)C3CC1C2 (stereo partly drawn) [GGG]", 0.12),
    ("CNC(C)C(=O)Nc1cc(N(C)C)c2c(c1O)C(=O)C1=C(O)[C@]3(O)C(=O)C(C(N)=O)=C(O)[C@@H](N(C)C)C3CC1C2.Cl.Cl (stereo partly drawn) [YY]", 0.25),
    ("CN(C)CC(=O)Nc1cc(N(C)C)c2c(c1O)C(=O)C1=C(O)C3(O)C(=O)C(C(N)=O)=C(O)C(N(C)C)C3CC1C2.O=S(=O)(O)O.O=S(=O)(O)O (stereo not drawn) [JJ]", 0.12),
]

// moving on: another record for Antibacterial activity (MIC)
Specify reported Antibacterial activity (MIC) for the compound shown: CCCCNCC(=O)Nc1cc(N(C)C)c2c(c1O)C(=O)C1=C(O)C3(O)C(=O)C(C(N)=O)=C(O)C(N(C)C)C3CC1C2.Cl.Cl (stereo not drawn) [PP] 0.12

###

system: S. aureus UBMS 90-3 (Sensitive); experiment: MIC, agar dilution; type: cell-based; conditions: S. aureus UBMS 90-3 (Sensitive)
hey, just use Y if measured MIC is less than 0.1 mg/L, otherwise N

# compound, classification
records = [
    ("CN(C)c1cc(NS(=O)(=O)c2cccc([N+](=O)[O-])c2)c(O)c2c1CC1CC3C(N(C)C)C(O)=C(C(N)=O)C(=O)C3(O)C(O)=C1C2=O (stereo not shown) [BB]", "N"),
    ("CN(C)c1cc(NC(=O)c2cccs2)c(O)c2c1CC1CC3C(N(C)C)C(O)=C(C(N)=O)C(=O)C3(O)C(O)=C1C2=O (stereo not shown) [Z]", "N"),
    ("CN(C)c1cc(NC(=O)CN)c(O)c2c1CC1CC3C(N(C)C)C(O)=C(C(N)=O)C(=O)C3(O)C(O)=C1C2=O.O=C(O)C(F)(F)F (stereo not shown) [M]", "N"),
    ("CN(C)c1cc(NC(=O)c2ccc(N)cc2)c(O)c2c1CC1CC3C(N(C)C)C(O)=C(C(N)=O)C(=O)C3(O)C(O)=C1C2=O.O=S(=O)(O)O (stereo not shown) [X]", "N"),
]

Is MIC of CN(C)c1ccc(C(=O)Nc2cc(N(C)C)c3c(c2O)C(=O)C2=C(O)[C@]4(O)C(=O)C(C(N)=O)=C(O)[C@@H](N(C)C)[C@@H]4C[C@@H]2C3)cc1 [W] strictly below 0.1 mg/L? N

Does the reported MIC of Cc1ccccc1C(=O)Nc1cc(N(C)C)c2c(c1O)C(=O)C1=C(O)C3(O)C(=O)C(C(N)=O)=C(O)C(N(C)C)C3CC1C2 (stereo not shown) [R] stay below 0.1 mg/L? N

In plain terms, does CN(C)c1cc(NC(=O)c2ccco2)c(O)c2c1CC1CC3C(N(C)C)C(O)=C(C(N)=O)C(=O)C3(O)C(O)=C1C2=O (stereo not shown) [Y] come in under 0.1 mg/L for MIC? N

Lab note: confirm whether the reported MIC for this compound is below 0.1 mg/L, equality not counting. compound: CCN(CC)c1cc(NC=O)c(O)c2c1C[C@H]1C[C@H]3[C@H](N(C)C)C(O)=C(C(N)=O)C(=O)[C@@]3(O)C(O)=C1C2=O.O=S(=O)(O)O.O=S(=O)(O)O [D] Y

A record lists CN(C)c1cc(NC(=O)c2ccccc2F)c(O)c2c1CC1CC3C(N(C)C)C(O)=C(C(N)=O)C(=O)C3(O)C(O)=C1C2=O (stereo not shown) [S] . Is its MIC below 0.1 mg/L? N

Data origin: patent USRE40086E1
